The reported numbers originate from the nanobody polyreactivity screen of Harvey et al. (2022).

# Procedure Details: yeast display, Sf9 membrane polyspecificity reagent, FACS + sequencing; frameworks hold sequencing errors
Observation Type: polyreactivity (PSR sort gate)

Solved cases below.
* QVQLVESAGGLVQAGGSLSLSCAASGRIFYYNTMGWYRQAPGKERELVAAISSTASTTYADSVKGRFTISRDNAKNTVYLQMNILKPEDTAVYYCAADHRYHWAYPRGYYYWGQGTQVTVSS | high polyreactivity
* QVQLVESGGGLVQAGGRLGLSCAACGFICDGYAMGWYRQAPGKDRELVAAITGSGGSPYYADSVKGRFTISRDNAKNTVYLQMNSLKPEDTAVYYCNTDYYSVRSGSYWHFPGGDYWGQGTQVTVSS | low polyreactivity
* QVQLVESGGGLVQAGGSLRLSCAASGSTFVKYTMGWYRPAPGKERELVAAIRRRGGSTYYADSVKGRFTISRDNAKNTVYLQMNSLKPEDTAVYYCATAGQGAFWGQGTQVTVSS | high polyreactivity
* QVQLVESGGGLVQAGGSLRLSCAASGNILYFYDMGRYRQAPGKERELVAVITGGGGSTYYADSVKGRYTISRDNAKNTVYLQMNRLKPEDTAVYYWAALPWFPDEEYDYWGHGTQVTVSS | high polyreactivity

Kindly review the next sequence as well.
Identify the reported polyreactivity (PSR sort gate) for the following entry. QVQHVESGGGLVQAGGSLRLSCAASGLIYAYYAMGWYRHAPGKERELVAAISRSGVSTYYADSVKGRFTISRDNAKNTVYLQMNSVKPEDTAVYYCAARWRSGFTSGDYWGQGTQVTVSS
low polyreactivity
